- assay-procedure: Apparent permeability across human Caco-2 cells
- Assay type: ADME, cell-based
measured-attribute: Papp (×10⁻⁶ cm/s)
Answers are plain numbers, in ×10⁻⁶ cm/s.

Parameters: items (list). Returns: Papp for each item.
1. Cc1ccc(-n2nc(C(C)(C)C)cc2NC(=O)Nc2ccc(OCCN3CCOCC3)c3ccccc23)cc1
2. COc1c(NC(=O)c2ccc(C)c(N3C=C(C(=O)NCC(C)(C)O)NN3)c2)cc(C(C)(C)C)cc1NS(C)(=O)=O
3. COc1c(NC(=O)c2ccc(C)c(N3C=C(C(=O)NCC(C)(C)CN(C)C)NN3)c2)cc(C(C)(C)C)cc1NS(C)(=O)=O

Output:
1. 10
2. 7.4
3. 13

* * *

- assay-procedure: Inhibition of JNK2a
Please respond with reported IC50 for every item in the list.
Give bare numbers, in nM.

COc1c(NC(=O)c2ccc(C)c(N3C=C(C(=O)NCC(C)(C)CN(C)C)NN3)c2)cc(C(C)(C)C)cc1NS(C)(=O)=O = 1100

Then this compound:
Task: Request the reported IC50 associated with Cc1ccc(-n2nc(C(C)(C)C)cc2NC(=O)Nc2ccc(OCCN3CCOCC3)c3ccccc23)cc1 [DORAMAPIMOD]
Output: 6

* * *

Please respond with reported Tm for every item in the list.
- assay-procedure: Binding affinity to mitogen-activated protein kinase p38 by thermal denaturation assay
One number for each entry, in °C.

COc1c(NC(=O)c2ccc(C)c(N3C=C(C(=O)NCC(C)(C)C)NN3)c2)cc(C(C)(C)C)cc1NS(C)(=O)=O = 60.5
CCOC(=O)C1=CN(c2cc(C(=O)Nc3cc(C(C)(C)C)cc(NS(C)(=O)=O)c3OC)ccc2C)NN1 = 56.2
COc1c(NC(=O)c2ccc(C)c(N3C=C(C(=O)NCC4CCCCC4)NN3)c2)cc(C(C)(C)C)cc1NS(C)(=O)=O = 56.2

Parameters: items (list). Returns: Tm for each item.
1. COc1c(NC(=O)c2ccc(C)c(N3C=C(C(=O)NCC(C)(C)CN(C)C)NN3)c2)cc(C(C)(C)C)cc1NS(C)(=O)=O
2. COc1c(NC(=O)c2ccc(C)c(N3C=C(C(=O)NCC4CCCN(C)C4)NN3)c2)cc(C(C)(C)C)cc1NS(C)(=O)=O (stereo not drawn)
3. COc1c(NC(=O)c2ccc(C)c(N3C=C(C(=O)N[C@@H](C)C4CCCCC4)NN3)c2)cc(C(C)(C)C)cc1NS(C)(=O)=O
4. COc1c(NC(=O)c2ccc(C)c(N3C=C(C(=O)NC(C)(C)C)NN3)c2)cc(C(C)(C)C)cc1NS(C)(=O)=O
5. COc1c(NC(=O)c2ccc(C)c(N3C=C(C(=O)N[C@H](C)C(C)(C)C)NN3)c2)cc(C(C)(C)C)cc1NS(C)(=O)=O
6. COc1c(NC(=O)c2ccc(C)c(N3C=C(C(=O)NCc4cccnc4)NN3)c2)cc(C(C)(C)C)cc1NS(C)(=O)=O
7. Cc1ccc(-n2nc(C(C)(C)C)cc2NC(=O)Nc2ccc(OCCN3CCOCC3)c3ccccc23)cc1

Output:
1: 57.3; 2: 57.4; 3: 56.9; 4: 56.8; 5: 61.6; 6: 57.9; 7: 63.5

* * *

- assay-procedure: Solubility at pH 7.4
- Type: physicochemical
- condition-context: buffer
measured-attribute: solubility (µg/mL)
Give bare numbers, in µg/mL.

Worked examples, 2 compounds total:
COc1c(NC(=O)c2ccc(C)c(N3C=C(C(=O)NCC(C)(C)C)NN3)c2)cc(C(C)(C)C)cc1NS(C)(=O)=O = 0.1
COc1c(NC(=O)c2ccc(C)c(N3C=C(C(=O)NCC(C)(C)O)NN3)c2)cc(C(C)(C)C)cc1NS(C)(=O)=O = 2

Parameters: items (list). Returns: solubility for each item.
1. Cc1ccc(-n2nc(C(C)(C)C)cc2NC(=O)Nc2ccc(OCCN3CCOCC3)c3ccccc23)cc1 [DORAMAPIMOD]
2. COc1c(NC(=O)c2ccc(C)c(N3C=C(C(=O)NCC(C)(C)CN(C)C)NN3)c2)cc(C(C)(C)C)cc1NS(C)(=O)=O

Output:
[1, 13.9]

* * *

- assay-procedure: Binding affinity to mitogen-activated protein kinase p38
measured-attribute: pKd
Give bare numbers, as −log10 of the molar value.

Task: Request the reported pKd associated with CCOC(=O)C1=CN(c2cc(C(=O)Nc3cc(C(C)(C)C)cc(NS(C)(=O)=O)c3OC)ccc2C)NN1
Output: 8.10

* * *

Please respond with reported Tm for every item in the list.
- assay-procedure: Binding affinity to mitogen-activated protein kinase p38 by thermal denaturation assay
Numbers only, in °C.

Worked examples, 6 compounds total:
COc1c(NC(=O)c2ccc(C)c(N3C=C(C(=O)NCc4ccccc4)NN3)c2)cc(C(C)(C)C)cc1NS(C)(=O)=O = 59.7
COc1c(NC(=O)c2ccc(C)c(N3C=C(C(=O)NCc4ccncc4)NN3)c2)cc(C(C)(C)C)cc1NS(C)(=O)=O = 58.8
COc1c(NC(=O)c2ccc(C)c(N3C=C(C(=O)N[C@H](CN(C)C)c4ccccc4)NN3)c2)cc(C(C)(C)C)cc1NS(C)(=O)=O = 65.1
COc1c(NC(=O)c2ccc(C)c(N3C=C(C(=O)N[C@H](C)C4CCCCC4)NN3)c2)cc(C(C)(C)C)cc1NS(C)(=O)=O = 60.8
COc1c(NC(=O)c2ccc(C)c(N3C=C(C(=O)NC4CC4)NN3)c2)cc(C(C)(C)C)cc1NS(C)(=O)=O = 56.6
COc1c(NC(=O)c2ccc(C)c(N3C=C(C(=O)N[C@@H](C)C(C)(C)C)NN3)c2)cc(C(C)(C)C)cc1NS(C)(=O)=O = 60

Parameters: items (list). Returns: Tm for each item.
1. CNC(=O)C1=CN(c2cc(C(=O)Nc3cc(C(C)(C)C)cc(NS(C)(=O)=O)c3OC)ccc2C)NN1
2. COc1c(NC(=O)c2ccc(C)c(N3C=C(C(=O)N[C@H](C)c4ccccc4)NN3)c2)cc(C(C)(C)C)cc1NS(C)(=O)=O
3. COc1c(NC(=O)c2ccc(C)c(N3C=C(C(=O)NCC(C)(C)N(C)C)NN3)c2)cc(C(C)(C)C)cc1NS(C)(=O)=O

Output:
57.3
64.6
56.1

Parameters: items (list). Returns: Tm for each item.
1. COc1c(NC(=O)c2ccc(C)c(N3C=C(C(=O)NCC(C)(C)O)NN3)c2)cc(C(C)(C)C)cc1NS(C)(=O)=O
2. COc1c(NC(=O)c2ccc(C)c(N3C=C(C(=O)N(C)Cc4ccccc4)NN3)c2)cc(C(C)(C)C)cc1NS(C)(=O)=O

Output:
59.9
57.8

Parameters: items (list). Returns: Tm for each item.
1. COc1c(NC(=O)c2ccc(C)c(N3C=C(C(=O)N[C@@H](C)c4ccccc4)NN3)c2)cc(C(C)(C)C)cc1NS(C)(=O)=O
2. COc1c(NC(=O)c2ccc(C)c(N3C=C(C(=O)NCC4CCN(C)CC4)NN3)c2)cc(C(C)(C)C)cc1NS(C)(=O)=O

Output:
[60.1, 57.5]
